target: Norepinephrine transporter (Rattus norvegicus, UniProt Q9WTR4); test: Inhibition of noradrenaline uptake in rat synaptosomal fraction
Sequence (Q9WTR4 whole entry): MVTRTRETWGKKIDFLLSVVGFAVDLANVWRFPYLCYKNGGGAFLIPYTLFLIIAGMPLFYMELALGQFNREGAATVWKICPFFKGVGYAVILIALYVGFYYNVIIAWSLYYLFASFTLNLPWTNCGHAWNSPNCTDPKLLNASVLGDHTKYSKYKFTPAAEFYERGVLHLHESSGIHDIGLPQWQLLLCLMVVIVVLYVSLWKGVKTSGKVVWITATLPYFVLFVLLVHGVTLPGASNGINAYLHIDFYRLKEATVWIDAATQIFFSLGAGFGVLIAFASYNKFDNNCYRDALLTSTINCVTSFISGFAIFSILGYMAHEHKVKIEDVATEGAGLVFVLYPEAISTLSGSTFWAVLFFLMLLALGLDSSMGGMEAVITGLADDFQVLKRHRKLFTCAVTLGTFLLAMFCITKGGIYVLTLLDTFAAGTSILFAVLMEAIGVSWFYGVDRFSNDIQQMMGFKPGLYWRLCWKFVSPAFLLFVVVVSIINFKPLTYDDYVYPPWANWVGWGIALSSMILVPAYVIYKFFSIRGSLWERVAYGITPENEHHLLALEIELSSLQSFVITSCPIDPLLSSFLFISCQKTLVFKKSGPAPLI
pIC50: −log10 of the molar value.

compound	pIC50
CCN(CC)C1CC(c2ccc(Cl)c(Cl)c2)c2ccccc21.Cl (stereo in doubt; 85)	9.25
CCCNC1CC(c2ccc(Cl)c(Cl)c2)c2ccccc21.Cl (stereo in doubt; 87)	9.18
CNC1CC(c2ccc(Br)cc2)c2ccccc21.Cl (stereo in doubt; 64)	8.06
CNC1CC(c2ccc(Cl)c(Cl)c2)c2ccc(F)cc21.Cl (stereo in doubt; 50)	9.15

----------
target: Sodium-dependent dopamine transporter (Rattus norvegicus); experiment: Inhibition of dopamine uptake in rat synaptosomal fraction
Sequence (P23977 whole entry): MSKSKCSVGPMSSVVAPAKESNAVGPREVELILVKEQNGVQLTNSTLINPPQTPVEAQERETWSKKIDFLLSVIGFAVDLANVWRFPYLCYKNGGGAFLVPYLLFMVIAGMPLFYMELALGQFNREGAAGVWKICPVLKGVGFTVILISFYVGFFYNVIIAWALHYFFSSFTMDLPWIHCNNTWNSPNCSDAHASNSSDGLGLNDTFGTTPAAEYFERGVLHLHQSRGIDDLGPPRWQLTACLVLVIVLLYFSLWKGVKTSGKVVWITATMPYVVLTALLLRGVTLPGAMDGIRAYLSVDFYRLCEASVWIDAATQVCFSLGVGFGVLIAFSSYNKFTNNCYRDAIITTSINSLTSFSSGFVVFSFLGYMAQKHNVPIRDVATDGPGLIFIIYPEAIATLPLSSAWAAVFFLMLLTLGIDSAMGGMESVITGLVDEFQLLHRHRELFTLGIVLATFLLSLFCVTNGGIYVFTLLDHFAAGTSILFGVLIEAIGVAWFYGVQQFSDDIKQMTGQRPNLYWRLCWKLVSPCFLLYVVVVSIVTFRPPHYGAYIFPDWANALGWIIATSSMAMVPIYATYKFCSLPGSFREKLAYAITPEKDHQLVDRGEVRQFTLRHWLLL
Reported values of IC50 for individual entries

molecule	IC50
CN(C)C1CC(c2ccc(F)cc2)c2ccc(F)cc21.Cl (centres undefined)	620 nM
CN(C)C1CC(c2ccc(Br)cc2)c2ccccc21 (stereo in doubt; 65)	83 nM
CCN(CC)C1CC(c2ccc(Cl)c(Cl)c2)c2ccccc21.Cl (stereo in doubt; 85)	2.1 nM
CN(C)C1CC(c2ccc(F)cc2)c2ccc(C(F)(F)F)cc21 (stereo in doubt; 57)	240 nM
CNC1CC(c2ccc(Cl)c(C(F)(F)F)c2)c2ccccc21 (centres undefined)	3500 nM
CN(C)C1CC(c2ccc(Cl)cc2Cl)c2ccccc21.Cl (stereo in doubt; 49)	2000 nM
CN(C)C1CC(c2ccc(Cl)cc2)c2ccccc21 (stereo in doubt; 63)	190 nM
Clc1ccc(C2CC(N3CCCC3)c3ccccc32)cc1Cl (stereo in doubt; 98)	32 nM
CN1CCN(C2CC(c3ccc(Cl)c(Cl)c3)c3ccccc32)CC1 (single isomer, unassigned; (-))	10 nM

Hello, the source for this data is ChEMBL document CHEMBL1122866, in case you need it.
